The reported measurements were obtained from ChEMBL document CHEMBL1126174.

ASSAY SYSTEM: Muscarinic acetylcholine receptor
Lab note: compare IC50 with 700 nM, writing Fulfilled if less and Not fulfilled if equal or more.

Record excerpt, results attached:
1) CC[C@H]1C(=O)SC[C@@H]1Cc1cncn1C    Fulfilled
2) CC[C@@H]1C(=O)SC[C@@H]1Cc1cncn1C    Fulfilled
3) CC[C@H]1C(=O)N(C)C[C@@H]1Cc1cncn1C    Not fulfilled
4) CC[C@H]1C(=S)SC[C@@H]1Cc1cncn1C    Fulfilled
5) CC[C@@H]1C(=O)NC[C@@H]1Cc1cncn1C    Not fulfilled

Shifting focus to the compound that follows.
Task: IC50 strictly < 700 nM for this compound? Cn1cncc1C[C@H]1COC(=O)C1
Result: Not fulfilled
